target: 4'-phosphopantetheinyl transferase ffp (Bacillus subtilis) (UniProt Q9F4F7); experiment: qHTS Assay for Inhibitors of Bacillus subtilis Sfp phosphopantetheinyl transferase (PPTase); settings: Biochemical Sfp PPTase activity;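 note: the enzyme is Sfp with the accession as filed and its product quenches rhodamine fluorescence; 0% = enzyme reaction without inhibitor and -100% = no enzyme wells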
The campaign covered roughly 310,000 compounds. About 11,000 (3.5%) were called active. Inconclusive results (about 4%) are left out. The sample as a whole holds a higher share of actives than the screen did.
endpoint: largest response in the series, negative = inhibition

Enquiry: Requested read-out largest response in the series, negative = inhibition, target or system 4'-phosphopantetheinyl transferase ffp (Bacillus subtilis) (UniProt Q9F4F7), entry `COc1ccc(NC(=O)CSc2nc(SC)ns2)c(OC)c1`
Return: 8.6% (inactive)

Enquiry: Requested read-out largest response in the series, negative = inhibition, target or system 4'-phosphopantetheinyl transferase ffp (Bacillus subtilis) (UniProt Q9F4F7), entry `CCOC(=O)c1ccc(NC(=O)c2cccnc2)cc1`
Return: 10.5% (inactive)

Enquiry: Requested read-out largest response in the series, negative = inhibition, target or system 4'-phosphopantetheinyl transferase ffp (Bacillus subtilis) (UniProt Q9F4F7), entry `COc1ccc(-c2cc(C(=O)N3CCN(c4ccc(F)cc4)CC3)no2)cc1`
Return: 8.09% (inactive)

Enquiry: Requested read-out largest response in the series, negative = inhibition, target or system 4'-phosphopantetheinyl transferase ffp (Bacillus subtilis) (UniProt Q9F4F7), entry `COc1cc(S(=O)(=O)N2CCN=C2c2ccccc2)ccc1Cl`
Return: 14% (inactive)

Enquiry: Requested read-out largest response in the series, negative = inhibition, target or system 4'-phosphopantetheinyl transferase ffp (Bacillus subtilis) (UniProt Q9F4F7), entry `CC(=O)Oc1cccc(C(=O)Nc2ccccc2NC(=O)c2cccc(OC(C)=O)c2)c1`
Return: 11.7% (inactive)

Enquiry: Requested read-out largest response in the series, negative = inhibition, target or system 4'-phosphopantetheinyl transferase ffp (Bacillus subtilis) (UniProt Q9F4F7), entry CCOC(=O)C1(Cc2ccccc2C)CCCN(S(C)(=O)=O)C1 (stereo unspecified)
Return: -1.45% (inactive)

Enquiry: Requested read-out largest response in the series, negative = inhibition, target or system 4'-phosphopantetheinyl transferase ffp (Bacillus subtilis) (UniProt Q9F4F7), entry `CN(CC(=O)NCCN1CCOCC1)S(=O)(=O)c1ccc(F)cc1`
Return: 16.5% (inactive)

Enquiry: Requested read-out largest response in the series, negative = inhibition, target or system 4'-phosphopantetheinyl transferase ffp (Bacillus subtilis) (UniProt Q9F4F7), entry `S=C(NCCc1ccccc1)N1CCCCC1`
Return: 5.57% (inactive)

Enquiry: Requested read-out largest response in the series, negative = inhibition, target or system 4'-phosphopantetheinyl transferase ffp (Bacillus subtilis) (UniProt Q9F4F7), entry O=C(NC(Cc1ccccc1)C(=O)O)/C(=C\c1ccccc1)NC(=O)c1ccco1 (stereo unspecified)
Return: 16.2% (inactive)

Enquiry: Requested read-out largest response in the series, negative = inhibition, target or system 4'-phosphopantetheinyl transferase ffp (Bacillus subtilis) (UniProt Q9F4F7), entry `Cc1ccccc1NC(=S)NC(=O)Cc1ccc(Cl)cc1`
Return: 1.33% (inactive)

Enquiry: Requested read-out largest response in the series, negative = inhibition, target or system 4'-phosphopantetheinyl transferase ffp (Bacillus subtilis) (UniProt Q9F4F7), entry `CCN(CC(=O)Nc1ccc(Cl)c(S(=O)(=O)N(C)C)c1)Cc1nc2ccccc2c(=O)[nH]1`
Return: -31.5% (inactive)

The reported measurements were obtained from PubChem BioAssay AID1490.
